Catalogue of binders with associated delta
# test_system: T1, human Dectin-1 (biosensor tests of Tables 3, 4A and 9; construct not stated) (human, UniProt Q9BXN2 66-247, limits assumed);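 also: Single-point dissociation rate (koff) fit for each variant binding domain, expressed as change versus the parental clone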
# T1 construct: also called hDectin-1
# T1 sequence (looked up): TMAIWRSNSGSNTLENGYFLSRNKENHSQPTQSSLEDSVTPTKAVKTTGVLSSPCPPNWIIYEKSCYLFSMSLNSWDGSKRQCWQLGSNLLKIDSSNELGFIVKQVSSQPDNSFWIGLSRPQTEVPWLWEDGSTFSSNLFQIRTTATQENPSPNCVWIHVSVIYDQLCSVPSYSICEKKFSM
# method_description: Octet
readout_type: delta (%)

>  <binder>
2M24A.1.8 hFab (Fab, V domains shown, Fab; also called 2M24.1.8) VH: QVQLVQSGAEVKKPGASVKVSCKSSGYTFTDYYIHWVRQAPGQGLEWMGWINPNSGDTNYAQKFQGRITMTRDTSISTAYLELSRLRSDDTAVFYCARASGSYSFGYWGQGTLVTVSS VL: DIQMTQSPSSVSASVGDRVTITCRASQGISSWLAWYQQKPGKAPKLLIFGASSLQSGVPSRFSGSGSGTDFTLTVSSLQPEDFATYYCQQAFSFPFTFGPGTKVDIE

>  <value>
100

$$$$
>  <binder>
2M24A.1.15 (Fab, V domains shown, Fab; also called 2M24.1.15) VH: QVQLVQSGAEVKKPGASVKVSCKSSGYTFTDYYIHWVRQAPGQGLEWMGWINPNSGDTNYAQKFQGRITMTRDTSISTAYLELSRLRSDDTAVFYCAANSGSYSFGYWGQGTLVTVSS VL: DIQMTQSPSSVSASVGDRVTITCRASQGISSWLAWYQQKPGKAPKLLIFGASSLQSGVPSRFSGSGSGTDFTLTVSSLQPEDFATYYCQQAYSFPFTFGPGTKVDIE

>  <value>
62

$$$$
